Answer each item with its documented GI50.
Tested on: SF-539
assay-name: NCI tumour cell line growth inhibition, 48 h
The source made the active and inactive calls. Rule as the data show it: active = GI50 up to about 1.1 µM and inactive = higher.

# map each molecule to its GI50
1. Cc1ccc(C(=O)N/N=C(\N=N\c2ccccc2)c2ccc(N(C)C)cc2)cc1
2. COc1ccc(/C=C/C(=O)c2c(-c3ccccc3)nn(C)c(=O)c2N2CCOCC2)cc1
3. COC(=O)C1Cc2c([nH]c3ccccc23)C(c2ccccc2O)N1 (stereo unspecified)
4. C[N+]1(CCC[N+]2(C)CC3C4C=CC(CC4)C3C2)CCOCC1 (stereo unspecified)
5. Nc1cc(N)cc(Cc2ccccc2)c1

> 100 µM (inactive)
> 100 µM (inactive)
34.1 µM (inactive)
> 100 µM (inactive)
> 100 µM (inactive)

# map each molecule to its GI50
1. O=C1OC(c2ccccc2)=N/C1=C\c1c(O)cc(O)cc1O
2. N#CC(C#N)=Cc1ccc2c(c1)OC(Cl)O2 (stereo unspecified)
3. COc1cc2c(cc1OC)C(C(c1ccccc1)c1ccccc1)N(C)CC2 (stereo unspecified)
4. N#Cc1c(N)n(-c2nc3ccccc3s2)c(=O)c2cc([N+](=O)[O-])ccc12
5. Cc1ccccc1-c1c(N)nc(N)nc1C(=O)Nc1nccs1

["> 100 µM (inactive)", "20.4 µM (inactive)", "> 100 µM (inactive)", "12.4 µM (inactive)", "> 100 µM (inactive)"]

Fill in the blank: the reported GI50 of `NC1=C(NC(=O)Cc2ccc(F)cc2)C(=O)c2ccccc2C1=O` is ____.
> 78 µM (inactive)

###

Answer each item with its documented GI50.
Tested on: COLO 205
assay-name: NCI tumour cell line growth inhibition, 48 h
Activity calls are given as the source filed them. No stated cut-off is given here; in the data, active = GI50 up to about 1.1 µM and inactive = higher.

# compound, GI50
rows = [
    ("Cc1ccc2c(c1)CC1(Cc3cccc(C)c3C1=O)C2=O (stereo not given)", "85.3 µM (inactive)"),
    ("CSc1nnnc2ccccc12", "> 100 µM (inactive)"),
    ("OC(Cc1cccnc1)(c1ccccc1)c1ccccc1", "> 100 µM (inactive)"),
]

# map each compound to its GI50
1. COc1ccc(-c2cc(-c3ccco3)c(C#N)c(=O)n2C2OC(COC(C)=O)C(OC(C)=O)C(OC(C)=O)C2OC(C)=O)cc1 (stereo not given)
2. CCc1ccccc1NC(=O)C1=C(C)NC(C)=C(C(=O)Nc2ccccc2CC)C1c1ccc(NC(C)=O)cc1

["> 100 µM (inactive)", "58.3 µM (inactive)"]

###

Tested on: HCT-116
assay-name: NCI tumour cell line growth inhibition, 48 h
Activity calls are given as the source filed them. Cut-off read from the data, not from the text of the source: active = GI50 up to about 1.1 µM and inactive = higher.
Answer each item with its documented GI50.

Worked cases, GI50 given:
# molecule, GI50
data = [
    ("Cc1ccc(S[C@@H](C)[C@@](O)(C(N)=O)c2ccccc2)cc1", "35.2 µM (inactive)"),
    ("Cc1ccc2c(c1C)CC1(Cc3c(C)ccc(C)c3C1=O)C2=O (configuration not stated)", "> 100 µM (inactive)"),
    ("CCCCc1ccc(-n2sc3ncc(-c4ccccc4)cc3c2=O)cc1", "> 100 µM (inactive)"),
    ("CC1=CC(=O)N2[C@H](OC[C@@H]2C(C)C)O1", "> 100 µM (inactive)"),
]

# map each molecule to its GI50
1. CC1(C)Cc2c(C#N)c(N)c3c(c2CO1)C(=O)OC3=O
2. C/C(=N/NC(=S)N1CCCCCC1)c1cccc(/C(C)=N\NC(=S)N2CCCCCC2)n1

> 100 µM (inactive)
1.66 µM (inactive)
